# testTarget: Gal(b1-4)GlcNAc(b1-2)[Gal(b1-4)GlcNAc(b1-6)]Man(a1-6)[Gal(b1-4)GlcNAc(b1-2)Man(a1-3)]Man(b1-4)GlcNAc(b1-4)GlcNAc
# assayInfo: glycan array binding signal (z-score within array); higher = stronger binding
# protocolConditions: glycan notation: IUPAC condensed, linker removed
This excerpt belongs to a sample that is enriched for the strongest signals.
Provide the recorded glycan array binding signal (z-score) for the entries that follow.
# respond with the number and nothing more

[in] Please give the documented glycan array binding signal (z-score) of Gz-CVNH (Gibberella zeae) (protein) MGSSHHHHHHSSGLVPRGSHMGNFHESSNNIWLEDGHILHAECGNGEGDYVESTLDLDYYIGNDDGSFSWGGENFSGSASNITLDIEGDDNIPVLRAELNPMDGDPVEANVNLSERIGNDCGTLIFLA
[out] -0.094

[in] Please give the documented glycan array binding signal (z-score) of AFL (Aspergillus fumigatus), Q4WW81 (protein) STPGAQQVLFRTGIAAVNLTNHLRVYFQDVYGSIRESLYEGSWANGTEKNVIGNAKLGSPVAATSKELKHIRVYTLTEGNTLQEFAYDSGTGWYNGGLGGAKFQVAPYSRIAAVFLAGTDALQLRIYAQKPDNTIQEYMWNGDGWKEGTNLGGALPGTGIGATSFRYTDYNGPSIRIWFQTDDLKLVQRAYDPHKGWYPDLVTIFDRAPPRTAIAATSFGAGNSSIYMRIYFVNSDNTIWQVCWDHGKGYHDKGTITPVIQGSEVAIISWGSFANNGPDLRLYFQNGTYISAVSEWVWNRAHGSQLGRSALPPA
[out] -0.356

[in] Please give the documented glycan array binding signal (z-score) of Epa6 (Candida glabrata), Q6DTM7_CANGB (protein) MGSSHHHHHHSSGLVPRGSHMKDDYSSSLSNNNLGWTDPTEFPLGCSPNVTTPKNGLSMELYSYDYLKSGSNPCWDAAYLDPNYPRTGYKSHRLLAKVENVAGNINFYYHAPMGCTSLFDTLPQAYNYRTPLTMTNFTMLLYGYFKPKVTGYHTFTISADDLLFVNFGAGNAFDCCKRESSADDFGNYQAYAVWGSQTAKDDLTVHLDAGLYYPIRIFFNNRDNDGALSLTLKTESDPNPVIDFSDYFYSFDDTKDGCPGLVSYDTS
[out] -0.198

[in] Please give the documented glycan array binding signal (z-score) of CV-2L (Chromobacterium violaceum), Q7NX84 (protein) MAQQGVFTLPARINFGVTVLVNSAATQHVEIFVDNEPRAAFSGVGTGDNNLGTKVINSGSGNVRVQITANGRQSDLVSSQLVLANKLNLAVVGSEDGTDMDYNDSIVILNWPLG
[out] -0.307

[in] Please give the documented glycan array binding signal (z-score) of BIp1-His (Cryptococcus neoformans) (protein) MFTKIFVALFAATAVLSAPVESAEKRITHTGRATFYSPSVGIGACGWQNTDEELVVALNAPQYALNADHNCGQSVRITNEQNGNQEIAKVVDLCPGCNDGDLDMSPALFGALNNNDFDQGVFPISWNFLPRDDTSSSN
[out] 0.266

[in] Please give the documented glycan array binding signal (z-score) of GNAT (Pseudomonas aeruginosa), Q9HV14 (protein) MQLSHRPAETGDLETVAGFPQDRDELFYCYPKAIWPFSVAQLAAAIAERRGSTVAVHDGQVLGFANFYQWQHGDFCALGNMMVAPAARGLGVARYLIGVMENLAREQYKARLMKISCFNANAAGLLLYTQLGYQPRAIAERHDPDGRRVALIQMDKPLEP
[out] 1.21
